Catalogue of IC50 readings, one per entry.
- measured-target: UniProt P48736
- Sequence (P48736 whole entry, species assumed): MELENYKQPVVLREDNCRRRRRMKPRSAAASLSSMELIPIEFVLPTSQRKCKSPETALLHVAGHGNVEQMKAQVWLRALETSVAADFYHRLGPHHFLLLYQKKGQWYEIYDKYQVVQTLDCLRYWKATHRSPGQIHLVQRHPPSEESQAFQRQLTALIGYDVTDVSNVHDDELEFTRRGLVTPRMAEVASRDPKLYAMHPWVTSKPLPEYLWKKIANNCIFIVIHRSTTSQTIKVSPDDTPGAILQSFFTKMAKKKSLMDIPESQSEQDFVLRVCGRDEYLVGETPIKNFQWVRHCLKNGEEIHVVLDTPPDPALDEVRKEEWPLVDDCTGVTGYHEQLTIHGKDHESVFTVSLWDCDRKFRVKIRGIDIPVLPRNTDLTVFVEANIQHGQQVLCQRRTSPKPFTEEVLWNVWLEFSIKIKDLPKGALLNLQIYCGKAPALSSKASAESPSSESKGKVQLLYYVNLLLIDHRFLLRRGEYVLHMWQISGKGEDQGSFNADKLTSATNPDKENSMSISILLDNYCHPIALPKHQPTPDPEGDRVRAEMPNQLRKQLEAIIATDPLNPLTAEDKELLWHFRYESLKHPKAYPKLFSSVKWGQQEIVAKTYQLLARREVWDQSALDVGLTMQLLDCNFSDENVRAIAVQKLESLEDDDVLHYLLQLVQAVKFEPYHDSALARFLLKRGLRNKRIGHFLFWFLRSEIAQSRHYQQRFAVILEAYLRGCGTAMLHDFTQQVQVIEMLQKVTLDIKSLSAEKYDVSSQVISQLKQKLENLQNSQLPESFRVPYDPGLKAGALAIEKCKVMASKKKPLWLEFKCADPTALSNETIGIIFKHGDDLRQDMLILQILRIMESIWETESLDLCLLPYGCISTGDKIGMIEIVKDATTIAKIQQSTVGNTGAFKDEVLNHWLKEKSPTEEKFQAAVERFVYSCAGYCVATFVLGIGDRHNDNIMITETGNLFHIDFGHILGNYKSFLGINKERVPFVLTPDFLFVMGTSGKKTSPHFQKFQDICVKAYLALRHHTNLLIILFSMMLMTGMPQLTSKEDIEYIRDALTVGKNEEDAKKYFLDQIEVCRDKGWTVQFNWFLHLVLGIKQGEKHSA

For orientation, consider the following solved cases.
# compound, measured-target, IC50
measured = [
    ("COc1ccc(C/N=C2\\NC(=O)S\\C2=C/c2ccc3c(c2)OCO3)cc1OC", "UniProt P48736", "> 100 µM"),
    ("C/N=C1\\NC(=O)S\\C1=C/c1ccc2c(c1)OCO2", "UniProt P48736", "> 100 µM"),
]

QUERY: Query (compound): CC(O)C/N=C1\NC(=O)S\C1=C/c1ccc2c(c1)OCO2 (stereo not drawn) ; field requested: IC50
RESULT: > 100 µM

* * *

- measured-target: PI3Kβ (Homo sapiens, UniProt P42338)
- Sequence (P42338 whole entry, species assumed): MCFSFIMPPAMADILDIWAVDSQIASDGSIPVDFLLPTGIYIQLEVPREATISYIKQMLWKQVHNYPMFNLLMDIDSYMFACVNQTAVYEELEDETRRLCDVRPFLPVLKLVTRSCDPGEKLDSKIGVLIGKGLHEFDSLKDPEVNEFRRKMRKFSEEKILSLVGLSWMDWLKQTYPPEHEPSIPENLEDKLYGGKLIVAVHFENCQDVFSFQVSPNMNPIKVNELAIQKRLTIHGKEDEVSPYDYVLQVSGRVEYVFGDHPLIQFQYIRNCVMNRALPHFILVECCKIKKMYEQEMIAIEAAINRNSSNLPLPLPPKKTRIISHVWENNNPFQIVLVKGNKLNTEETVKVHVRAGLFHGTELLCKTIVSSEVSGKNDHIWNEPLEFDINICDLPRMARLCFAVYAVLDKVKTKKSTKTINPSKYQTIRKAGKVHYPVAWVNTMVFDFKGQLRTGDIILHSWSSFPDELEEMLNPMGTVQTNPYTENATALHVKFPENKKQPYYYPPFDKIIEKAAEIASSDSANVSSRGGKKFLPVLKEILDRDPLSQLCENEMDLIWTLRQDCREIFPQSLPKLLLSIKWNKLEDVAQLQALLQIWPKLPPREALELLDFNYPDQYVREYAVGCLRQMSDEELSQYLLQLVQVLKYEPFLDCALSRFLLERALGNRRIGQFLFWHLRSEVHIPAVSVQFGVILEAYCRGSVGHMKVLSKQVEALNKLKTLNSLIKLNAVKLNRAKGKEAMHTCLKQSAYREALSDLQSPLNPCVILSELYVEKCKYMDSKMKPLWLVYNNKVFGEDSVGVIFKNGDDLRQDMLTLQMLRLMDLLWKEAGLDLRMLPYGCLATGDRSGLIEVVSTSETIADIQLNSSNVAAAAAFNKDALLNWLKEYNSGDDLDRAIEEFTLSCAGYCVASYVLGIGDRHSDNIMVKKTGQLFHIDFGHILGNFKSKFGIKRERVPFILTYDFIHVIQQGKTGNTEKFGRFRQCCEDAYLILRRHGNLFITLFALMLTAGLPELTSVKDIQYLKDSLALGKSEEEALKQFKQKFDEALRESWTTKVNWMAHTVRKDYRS
- Sequence (P27986 whole entry partner, species assumed): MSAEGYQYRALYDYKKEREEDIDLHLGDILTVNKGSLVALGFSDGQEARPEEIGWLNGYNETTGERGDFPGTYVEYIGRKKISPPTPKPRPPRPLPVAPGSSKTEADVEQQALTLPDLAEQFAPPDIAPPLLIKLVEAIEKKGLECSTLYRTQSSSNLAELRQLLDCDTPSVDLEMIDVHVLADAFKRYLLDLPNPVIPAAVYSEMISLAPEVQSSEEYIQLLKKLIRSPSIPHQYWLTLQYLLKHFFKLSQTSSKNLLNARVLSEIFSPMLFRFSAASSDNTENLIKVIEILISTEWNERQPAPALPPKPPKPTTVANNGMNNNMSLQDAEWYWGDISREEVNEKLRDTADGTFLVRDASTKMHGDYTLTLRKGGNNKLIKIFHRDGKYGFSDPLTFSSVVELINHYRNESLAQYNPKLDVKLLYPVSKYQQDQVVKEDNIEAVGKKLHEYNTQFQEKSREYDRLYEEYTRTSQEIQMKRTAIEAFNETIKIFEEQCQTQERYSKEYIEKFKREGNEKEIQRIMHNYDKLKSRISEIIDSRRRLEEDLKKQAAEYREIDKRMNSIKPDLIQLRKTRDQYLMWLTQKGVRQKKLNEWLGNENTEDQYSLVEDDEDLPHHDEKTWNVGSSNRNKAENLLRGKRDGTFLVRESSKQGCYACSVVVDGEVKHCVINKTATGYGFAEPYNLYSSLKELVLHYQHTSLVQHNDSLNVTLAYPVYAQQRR
pIC50: −log10 of the molar value.
measurement-label: pIC50

# compound, measured-target, pIC50
rows = [
    ("C/N=C1\\NC(=O)S\\C1=C/c1ccc2c(c1)OCO2 [Compound 7x]", "PI3Kβ (Homo sapiens, UniProt P42338)", "< 4.00"),
    ("COc1ccc(C/N=C2\\NC(=O)S\\C2=C/c2ccc3c(c2)OCO3)cc1OC [Compound 7p]", "PI3Kβ (Homo sapiens, UniProt P42338)", "< 4.00"),
    ("CC(O)C/N=C1\\NC(=O)S\\C1=C/c1ccc2c(c1)OCO2 (stereo not shown) [Compound 7z]", "PI3Kβ (Homo sapiens, UniProt P42338)", "< 4.00"),
]

QUERY: Query (compound): CSC1=NC(=O)S/C1=C\c1ccc2c(c1)OCO2 [Compound 5] ; field requested: pIC50
RESULT: < 6.00

* * *

// values below are IC50; system is UniProtKB O00329
Sequence (O00329 whole entry, species assumed, one chain of several): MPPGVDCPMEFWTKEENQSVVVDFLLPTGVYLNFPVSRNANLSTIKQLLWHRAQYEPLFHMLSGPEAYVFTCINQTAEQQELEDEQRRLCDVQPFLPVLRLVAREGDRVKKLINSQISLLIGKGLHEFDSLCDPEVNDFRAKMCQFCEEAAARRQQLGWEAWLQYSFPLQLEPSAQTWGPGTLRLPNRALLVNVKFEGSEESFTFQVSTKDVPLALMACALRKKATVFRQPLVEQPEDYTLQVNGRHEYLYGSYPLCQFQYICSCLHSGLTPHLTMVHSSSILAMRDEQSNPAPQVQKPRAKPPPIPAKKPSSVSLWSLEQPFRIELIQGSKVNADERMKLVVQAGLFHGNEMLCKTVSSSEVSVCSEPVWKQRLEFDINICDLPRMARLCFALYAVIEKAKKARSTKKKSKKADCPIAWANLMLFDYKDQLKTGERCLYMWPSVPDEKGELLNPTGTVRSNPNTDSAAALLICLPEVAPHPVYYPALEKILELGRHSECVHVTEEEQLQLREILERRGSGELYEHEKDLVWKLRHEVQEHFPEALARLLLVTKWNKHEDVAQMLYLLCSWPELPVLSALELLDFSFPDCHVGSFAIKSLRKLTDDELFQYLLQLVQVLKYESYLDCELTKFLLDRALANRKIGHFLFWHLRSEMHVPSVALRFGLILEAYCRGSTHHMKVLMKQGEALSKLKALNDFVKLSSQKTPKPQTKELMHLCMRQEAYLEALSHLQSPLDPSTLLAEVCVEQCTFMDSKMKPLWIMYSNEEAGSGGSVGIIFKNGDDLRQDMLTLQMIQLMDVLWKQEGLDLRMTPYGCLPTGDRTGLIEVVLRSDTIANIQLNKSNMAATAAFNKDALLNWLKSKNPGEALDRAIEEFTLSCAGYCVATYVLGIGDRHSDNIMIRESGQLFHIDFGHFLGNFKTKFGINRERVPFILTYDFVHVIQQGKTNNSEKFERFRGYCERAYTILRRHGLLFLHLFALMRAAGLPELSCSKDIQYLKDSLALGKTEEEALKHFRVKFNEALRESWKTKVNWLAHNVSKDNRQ

# compound, IC50
data = [
    ("COc1ccc(C/N=C2\\NC(=O)S\\C2=C/c2ccc3c(c2)OCO3)cc1OC", "> 100 µM"),
    ("CC(O)C/N=C1\\NC(=O)S\\C1=C/c1ccc2c(c1)OCO2 (stereo not drawn)", "> 100 µM"),
]

QUERY: Could you tell me which IC50 is on file for C/N=C1\NC(=O)S\C1=C/c1ccc2c(c1)OCO2 ?
RESULT: > 100 µM
